- Measurement Target: dopamine D2 receptors (Rattus norvegicus, UniProt P61169)
- Sequence (P61169 1-415 isoform P61169-2): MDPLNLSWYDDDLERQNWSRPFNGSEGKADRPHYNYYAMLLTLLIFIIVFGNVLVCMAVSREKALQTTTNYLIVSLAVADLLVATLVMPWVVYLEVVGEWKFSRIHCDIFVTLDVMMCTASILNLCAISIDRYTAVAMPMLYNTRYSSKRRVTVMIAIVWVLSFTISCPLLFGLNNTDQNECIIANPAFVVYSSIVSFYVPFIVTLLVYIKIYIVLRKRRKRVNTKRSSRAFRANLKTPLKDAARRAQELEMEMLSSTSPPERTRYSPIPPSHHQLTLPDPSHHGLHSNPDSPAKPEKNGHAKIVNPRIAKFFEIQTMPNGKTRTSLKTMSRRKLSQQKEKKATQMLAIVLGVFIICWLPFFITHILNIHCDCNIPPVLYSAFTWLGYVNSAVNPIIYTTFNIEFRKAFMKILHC
- Test Method Notes: Inhibition of 3H-spiroperidol binding to dopamine D2 receptors in rat brain in vitro
- Setup Conditions: 3H-spiroperidol 0.5 nM, membranes from rat corpus striatum; read-out: 3H Spiroperidole (D2) binding IC50
pIC50: −log10 of the molar value. Where a name gives a salt, the structure may show the parent alone.
Overview of reported pIC50 across a group of molecules:
Measured Quantity: pIC50

{"columns": ["Molecule", "Measured Quantity", "Test Result"],
 "data": [
  ["CC(C)Oc1ccccc1C1=CCN(CCCCN2CCN(c3ccc(F)cc3)C2=O)CC1.O=C(O)C(=O)O [Compound 9b, oxalate]", "pIC50", 7.96],
  ["O=C1N(CCCCN2CCN(c3ccccc3OS(=O)(=O)C(F)(F)F)CC2)CCN1c1ccc(F)cc1", "pIC50", 7.24],
  ["CC(C)Oc1ccccc1C1CCN(CCCCN2CCN(c3ccc(F)cc3)C2=O)CC1.O=C(O)C(=O)O [Compound 6a, Oxalate]", "pIC50", 8.10],
  ["CC(C)Oc1ccccc1C1=CCN(CCCCN2CCN(C3CCCCC3)C2=O)CC1.O=C(O)C(=O)O [Compound 9a, Oxalate]", "pIC50", 8.06],
  ["O=C1N(CCCCN2CCN(c3ccccc3OC3CCCC3)CC2)CCN1c1ccc(F)cc1", "pIC50", 7.82],
  ["CC(C)Oc1ccccc1N1CCN(CCCN2CCN(c3ccccc3)C2=O)CC1", "pIC50", 7.62],
  ["O=C1N(CCCCN2CCC(c3ccccc3OS(=O)(=O)C(F)(F)F)CC2)CCN1c1ccc(F)cc1", "pIC50", 7.39],
  ["CC(C)Oc1ccccc1C1CCN(CCCCn2ccn(C3CCCCC3)c2=O)CC1.O=C(O)C(=O)O [Compound 6h, oxalate]", "pIC50", 8.00],
  ["O=C(O)C(=O)O.O=C1N(CCCCN2CCC(c3ccccc3OCC3CC3)CC2)CCN1C1CCCCC1 [Compound 6f, oxalate]", "pIC50", 7.43],
  ["CC(C)Oc1ccccc1C1CCN(CCCCN2CCN(C(C)C)C2=O)CC1.O=C(O)C(=O)O [Compound 6d, oxalate]", "pIC50", 8.11],
  ["CC(C)Oc1ccccc1C1CCN(CCCN2CCN(C3CCCCC3)C2=O)CC1.O=C(O)C(=O)O [Compound 6c, oxalate]", "pIC50", 6.96],
  ["CC(C)Oc1ccccc1C1=CCN(CCCCn2ccn(C3CCCCC3)c2=O)CC1", "pIC50", 7.57],
  ["CC(C)Oc1ccccc1N1CCN(CCCCN2CCN(C3CCCCC3)C2=O)CC1.O=C(O)C(=O)O [Compound 4a, Oxalate]", "pIC50", 8.19],
  ["CC(C)Oc1ccccc1C1CCN(CCCCCCN2CCN(C3CCCCC3)C2=O)CC1.O=C(O)C(=O)O [Compound 6e, oxalate]", "pIC50", 7.80],
  ["O=C1N(CCCCN2CCN(c3ccccc3OS(=O)(=O)C(F)(F)F)CC2)CCN1C1CCCCC1 [Compound 7b, hydrochloride]", "pIC50", 7.31],
  ["CC(C)Oc1ccccc1N1CCN(CCCCN2CCN(c3ccc(F)cc3)C2=O)CC1", "pIC50", 8.41],
  ["Cl.Cl.O=C1N(CCCCN2CCN(c3ccccc3OC3CCCC3)CC2)CCN1C1CCCCC1 [Compound 4c, dihydrochloride]", "pIC50", 7.89],
  ["CC(C)Oc1ccccc1C1CCN(CCCCN2CCN(C3CCCCC3)C2=O)CC1.O=C(O)C(=O)O [Compound 6b, oxalate]", "pIC50", 8.06]
]}
